Biological target: CYP 1A2 (Homo sapiens, UniProt P05177)
Construct: purchased
Sequence (P05177 whole entry): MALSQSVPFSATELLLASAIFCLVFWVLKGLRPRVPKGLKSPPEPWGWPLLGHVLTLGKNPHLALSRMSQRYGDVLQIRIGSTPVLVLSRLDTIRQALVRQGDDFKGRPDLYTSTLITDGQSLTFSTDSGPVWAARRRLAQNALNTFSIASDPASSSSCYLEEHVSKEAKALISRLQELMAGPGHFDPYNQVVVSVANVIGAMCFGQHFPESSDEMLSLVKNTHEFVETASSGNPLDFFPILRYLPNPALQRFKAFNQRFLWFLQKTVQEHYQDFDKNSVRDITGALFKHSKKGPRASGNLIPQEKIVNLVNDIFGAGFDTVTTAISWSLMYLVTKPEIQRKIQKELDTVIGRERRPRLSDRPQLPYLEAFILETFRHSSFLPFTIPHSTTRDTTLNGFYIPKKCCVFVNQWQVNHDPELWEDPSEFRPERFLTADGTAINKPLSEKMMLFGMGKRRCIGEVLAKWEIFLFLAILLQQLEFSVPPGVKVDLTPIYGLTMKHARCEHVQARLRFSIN
Assay: Cytochrome-P450 isoforms liability determination
Format: in vitro ADME
Settings: fluorescence based kit; read-out: CYP liability (IC50 in μM) CYP 1A2
Structures can show the parent of a compound that is named as a salt.
measured-attribute: IC50

Worked cases, IC50 given:
compound: O=C(NO)c1ccc(Cn2cc(-c3ccc(CN4CCCC4)cc3)nn2)cc1
recorded-value: > 60 µM
//
compound: O=C(/C=C/c1ccc(Cn2cc(-c3ccc(CN4CCCC4)cc3)nn2)cc1)NO
recorded-value: > 60 µM
//
compound: CN(C)Cc1ccc(-c2cn(Cc3ccc(/C=C/C(=O)NO)cc3)nn2)cc1
recorded-value: > 60 µM

What does the record list as IC50 for `O=C(NO)c1ccc(Cn2cc(-c3ccc(CN4CCOCC4)cc3)nn2)cc1` ?
> 60 µM

What does the record list as IC50 for O=C(/C=C/c1cccc(Cn2cc(-c3ccc(CN4CCOCC4)cc3)nn2)c1)NO [Example 25, hydrochloride] ?
> 60 µM

---

Assay: Oral bioavailability and pharmacokinetics studies
Assay type: in vivo, male Balb/c mice
Conditions: plasma; oral 50 mg/kg, male Balb/c mouse
measured-attribute: half-life (h)
Express the result in h but write the number alone.

What does the record list as half-life for `CCN(CC)Cc1ccc(-c2cn(Cc3ccc(C(=O)NO)cc3)nn2)c(F)c1` ?
2

---

Examples of molecules with documented GI50 follow.
Test system: HCT-116
Experiment: Anti-proliferative activity (GI50)
Type: cell-based
Settings: Homo sapiens, HCT-116; Table 9; Colon; read-out: Anti-proliferative activity (GI50) HCT-116
Structures can show the parent of a compound that is named as a salt.
Express the result in nM but write the number alone.

Worked cases, GI50 given:
molecule: CN(C)Cc1ccc(-c2cn(Cc3ccc(/C=C/C(=O)NO)cc3)nn2)cc1
units-symbol: nM
GI50: 200
//
molecule: O=C(/C=C/c1cccc(Cn2cc(-c3ccc(CN4CCOCC4)cc3)nn2)c1)NO [Example 25, hydrochloride]
units-symbol: nM
GI50: 200

Now consider the entry below.
What does the record list as GI50 for `O=C(NO)c1ccc(Cn2cc(-c3ccc(CN4CCCC4)cc3)nn2)cc1` ?
100

---

Target: hERG (Homo sapiens)
Construct: expressed in transfected cells; host or cells: CHO cells (membrane preparation)
Sequence (Q12809 whole entry): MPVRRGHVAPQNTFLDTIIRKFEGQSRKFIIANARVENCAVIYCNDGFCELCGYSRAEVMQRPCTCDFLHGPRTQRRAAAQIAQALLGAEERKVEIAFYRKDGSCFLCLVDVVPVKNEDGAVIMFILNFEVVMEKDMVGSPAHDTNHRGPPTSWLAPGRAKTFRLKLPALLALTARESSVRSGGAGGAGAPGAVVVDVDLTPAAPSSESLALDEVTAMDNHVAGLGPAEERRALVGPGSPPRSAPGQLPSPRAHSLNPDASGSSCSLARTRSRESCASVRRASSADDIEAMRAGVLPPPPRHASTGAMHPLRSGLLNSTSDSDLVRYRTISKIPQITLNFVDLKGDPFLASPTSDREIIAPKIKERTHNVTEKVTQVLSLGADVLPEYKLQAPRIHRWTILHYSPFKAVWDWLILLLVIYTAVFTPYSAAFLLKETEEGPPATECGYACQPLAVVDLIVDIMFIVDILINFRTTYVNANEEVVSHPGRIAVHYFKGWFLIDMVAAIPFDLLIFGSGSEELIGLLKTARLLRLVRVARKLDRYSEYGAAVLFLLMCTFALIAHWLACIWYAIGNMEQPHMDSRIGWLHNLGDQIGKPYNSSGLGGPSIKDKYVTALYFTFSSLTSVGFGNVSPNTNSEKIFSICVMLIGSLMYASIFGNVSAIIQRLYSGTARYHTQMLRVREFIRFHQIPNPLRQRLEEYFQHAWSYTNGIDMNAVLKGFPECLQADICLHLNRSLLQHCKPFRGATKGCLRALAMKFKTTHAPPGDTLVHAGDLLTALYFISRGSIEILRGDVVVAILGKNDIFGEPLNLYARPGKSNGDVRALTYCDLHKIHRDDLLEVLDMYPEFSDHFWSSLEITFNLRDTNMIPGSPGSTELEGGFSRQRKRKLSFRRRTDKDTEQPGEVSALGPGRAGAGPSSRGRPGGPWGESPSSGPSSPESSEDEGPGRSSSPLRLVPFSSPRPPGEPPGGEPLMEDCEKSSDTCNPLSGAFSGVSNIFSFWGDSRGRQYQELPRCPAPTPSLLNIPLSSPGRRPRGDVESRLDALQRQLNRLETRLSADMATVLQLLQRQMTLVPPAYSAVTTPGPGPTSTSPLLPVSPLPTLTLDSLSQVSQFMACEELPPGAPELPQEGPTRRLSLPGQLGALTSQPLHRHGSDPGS
Experiment: hERG competitive binding assay (3H-Astemizole)
Settings: hERG-CHO membrane, 1 nM 3H-Astemizole
Structures can show the parent of a compound that is named as a salt.
Examples of compounds with documented IC50 follow.

What does the record list as IC50 for `O=C(/C=C/c1ccc(Cn2cc(-c3ccc(CN4CCCC4)cc3)nn2)cc1)NO` ?
> 100 µM

What does the record list as IC50 for O=C(/C=C/c1cccc(Cn2cc(-c3ccc(CN4CCOCC4)cc3)nn2)c1)NO [Example 25, hydrochloride] ?
> 100 µM

What does the record list as IC50 for `O=C(NO)c1ccc(Cn2cc(-c3ccc(CN4CCOCC4)cc3)nn2)cc1` ?
> 100 µM
